Measured pKi, listed per entry.
TARGET ENTITY: Butyrylcholinesterase (Equus caballus, UniProt Q9N1N9)
Sequence (Q9N1N9 whole entry): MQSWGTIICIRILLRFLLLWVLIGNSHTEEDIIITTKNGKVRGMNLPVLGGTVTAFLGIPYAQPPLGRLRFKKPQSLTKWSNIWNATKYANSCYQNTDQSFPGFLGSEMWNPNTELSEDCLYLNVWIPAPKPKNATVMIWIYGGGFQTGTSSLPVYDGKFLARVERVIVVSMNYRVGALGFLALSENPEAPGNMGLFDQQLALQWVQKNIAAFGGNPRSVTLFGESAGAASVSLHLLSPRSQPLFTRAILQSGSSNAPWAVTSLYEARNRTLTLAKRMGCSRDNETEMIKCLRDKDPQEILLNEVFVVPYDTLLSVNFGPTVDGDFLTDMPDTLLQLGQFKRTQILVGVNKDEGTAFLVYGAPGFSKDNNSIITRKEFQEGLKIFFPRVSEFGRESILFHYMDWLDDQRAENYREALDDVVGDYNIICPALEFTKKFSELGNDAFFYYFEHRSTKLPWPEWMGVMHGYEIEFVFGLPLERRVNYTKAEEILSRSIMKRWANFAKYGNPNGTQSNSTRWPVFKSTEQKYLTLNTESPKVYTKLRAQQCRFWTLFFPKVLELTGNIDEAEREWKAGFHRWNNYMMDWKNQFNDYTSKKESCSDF
ASSAY NAME: Reversible competitive inhibition of horse serum butyrylcholinesterase using acetylcholine bromide as substrate assessed as free enzyme-inhibitor complex by Lineweaver-Burk plot analysis
pKi: −log10 of the molar value.
MEASURED QUANTITY: pKi

CC(=O)OCC[n+]1cccc2c3ccccc3ccc21 6.09
CC(=O)OCC[n+]1ccccc1 7.96
CC(=O)OCC[n+]1c2ccccc2cc2ccccc21 7.96
CC(=O)OCC[n+]1cc2ccccc2c2ccccc21 6.92

====

TARGET ENTITY: Butyrylcholinesterase (Equus caballus, UniProt Q9N1N9)
ASSAY NAME: Reversible mixed-type inhibition of horse serum butyrylcholinesterase using acetylcholine bromide as substrate by Lineweaver-Burk plot analysis
pKi: −log10 of the molar value.
Entry flag: met if pKi reaches 5; not met if it does not.

COMPOUND	GROUP
c1ccc2c(c1)ccc1c2ccc[n+]1CCCCCC[n+]1cccc2c3ccccc3ccc21	met
c1ccc(C[n+]2cccc3c4ccccc4ccc32)cc1	met
OCC[n+]1cc2ccccc2c2ccccc21	not met
C[n+]1cc2ccccc2c2ccccc21	met
C[n+]1c2ccccc2cc2ccccc21	met
c1ccc(CC[n+]2cccc3c4ccccc4ccc32)cc1	met
c1ccc2c(c1)cc1ccccc1[n+]2CCCCCC[n+]1c2ccccc2cc2ccccc21	met
c1ccc(C[n+]2cc3ccccc3c3ccccc32)cc1	met
c1ccc(CC[n+]2cc3ccccc3c3ccccc32)cc1	met
c1ccc2c(c1)c[n+](Cc1ccc(C[n+]3cc4ccccc4c4ccccc43)cc1)c1ccccc21	met
OCC[n+]1cccc2ccc3ccccc3c21	not met
CC(C)[n+]1cc2ccccc2c2ccccc21	met
O=C(O)C[n+]1cc2ccccc2c2ccccc21	not met
C[n+]1cccc2c3ccccc3ccc21	not met
c1ccc2c(c1)c[n+](CCCCCC[n+]1cc3ccccc3c3ccccc31)c1ccccc21	met
C[n+]1cccc2ccc3ccccc3c21	not met
C[N+](C)(CCCCCC[N+](C)(C)C1c2ccccc2-c2ccccc21)C1c2ccccc2-c2ccccc21 [HEXAFLUORENIUM BROMIDE]	met
OCC[n+]1cccc2c3ccccc3ccc21	not met
CCCCCC[n+]1cc2ccccc2c2ccccc21	met

====

TARGET ENTITY: Acetylcholinesterase (Electrophorus electricus, UniProt O42275)
Sequence (O42275 whole entry): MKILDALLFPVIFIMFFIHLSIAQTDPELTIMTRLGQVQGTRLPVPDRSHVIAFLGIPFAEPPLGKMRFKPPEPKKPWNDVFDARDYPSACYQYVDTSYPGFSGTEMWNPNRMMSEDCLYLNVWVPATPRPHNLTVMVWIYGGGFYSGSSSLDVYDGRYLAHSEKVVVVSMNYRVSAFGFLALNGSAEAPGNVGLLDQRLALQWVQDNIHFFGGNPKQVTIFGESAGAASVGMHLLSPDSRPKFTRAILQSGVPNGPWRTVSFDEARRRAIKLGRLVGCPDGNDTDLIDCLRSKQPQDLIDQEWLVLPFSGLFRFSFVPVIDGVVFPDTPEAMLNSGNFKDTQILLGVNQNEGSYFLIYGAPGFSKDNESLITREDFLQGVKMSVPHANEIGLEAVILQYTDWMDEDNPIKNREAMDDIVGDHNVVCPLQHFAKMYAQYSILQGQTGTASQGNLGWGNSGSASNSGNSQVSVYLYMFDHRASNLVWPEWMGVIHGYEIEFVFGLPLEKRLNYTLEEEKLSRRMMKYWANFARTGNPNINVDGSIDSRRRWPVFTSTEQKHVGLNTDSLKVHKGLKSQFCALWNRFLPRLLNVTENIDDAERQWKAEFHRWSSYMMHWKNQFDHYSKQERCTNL
ASSAY NAME: Reversible mixed-type inhibition of electric eel acetylcholinesterase using acetylcholine bromide as substrate by Lineweaver-Burk plot analysis
Kindly apply the following: label 1 if Ki is less than 1000 nM, label 0 in every other case.

MOLECULE	GROUP
CC(C)[n+]1cc2ccccc2c2ccccc21	label 0
c1ccc(CC[n+]2cc3ccccc3c3ccccc32)cc1	label 1
OCC[n+]1cc2ccccc2c2ccccc21	label 0
C[N+](C)(CCCCCC[N+](C)(C)C1c2ccccc2-c2ccccc21)C1c2ccccc2-c2ccccc21 [HEXAFLUORENIUM BROMIDE]	label 0
c1ccc2c(c1)cc1ccccc1[n+]2CCCCCC[n+]1c2ccccc2cc2ccccc21	label 1
c1ccc(C[n+]2cc3ccccc3c3ccccc32)cc1	label 1
C[n+]1cc2ccccc2c2ccccc21	label 0
C[n+]1c2ccccc2cc2ccccc21	label 0

====

Measured Ki, listed per entry.
TARGET ENTITY: Butyrylcholinesterase (Equus caballus)
ASSAY NAME: Reversible mixed-type inhibition of horse serum butyrylcholinesterase using acetylcholine bromide as substrate assessed as free enzyme-inhibitor complex by Lineweaver-Burk plot analysis

COMPOUND	TARGET ENTITY	UNIT	Ki
CC(C)[n+]1cc2ccccc2c2ccccc21	Butyrylcholinesterase (Equus caballus)	nM	1500
CCCCCC[n+]1cc2ccccc2c2ccccc21	Butyrylcholinesterase (Equus caballus)	nM	120
CCC[n+]1cc2ccccc2c2ccccc21	Butyrylcholinesterase (Equus caballus)	nM	1300
c1ccc(CC[n+]2cccc3c4ccccc4ccc32)cc1	Butyrylcholinesterase (Equus caballus)	nM	920
OCC[n+]1c2ccccc2cc2ccccc21	Butyrylcholinesterase (Equus caballus)	nM	1300
OCC[n+]1cc2ccccc2c2ccccc21	Butyrylcholinesterase (Equus caballus)	nM	37000
c1ccc(C[n+]2cc3ccccc3c3ccccc32)cc1	Butyrylcholinesterase (Equus caballus)	nM	61
c1ccc2c(c1)c[n+](CCCCCC[n+]1cc3ccccc3c3ccccc31)c1ccccc21	Butyrylcholinesterase (Equus caballus)	nM	27
C[n+]1cc2ccccc2c2ccccc21	Butyrylcholinesterase (Equus caballus)	nM	1100
c1ccc2c(c1)cc1ccccc1[n+]2CCCCCC[n+]1c2ccccc2cc2ccccc21	Butyrylcholinesterase (Equus caballus)	nM	7.3
C[n+]1c2ccccc2cc2ccccc21	Butyrylcholinesterase (Equus caballus)	nM	240
C[n+]1cccc2ccc3ccccc3c21	Butyrylcholinesterase (Equus caballus)	nM	32000
OCC[n+]1cccc2ccc3ccccc3c21	Butyrylcholinesterase (Equus caballus)	nM	110000
C[n+]1cccc2c3ccccc3ccc21	Butyrylcholinesterase (Equus caballus)	nM	5400
c1ccc(CC[n+]2cc3ccccc3c3ccccc32)cc1	Butyrylcholinesterase (Equus caballus)	nM	54
c1ccc2c(c1)ccc1c2ccc[n+]1CCCCCC[n+]1cccc2c3ccccc3ccc21	Butyrylcholinesterase (Equus caballus)	nM	360
OCC[n+]1cccc2c3ccccc3ccc21	Butyrylcholinesterase (Equus caballus)	nM	79000
CC(=O)OCC[n+]1ccccc1	Butyrylcholinesterase (Equus caballus)	nM	120000
c1ccc2c(c1)c[n+](Cc1ccc(C[n+]3cc4ccccc4c4ccccc43)cc1)c1ccccc21	Butyrylcholinesterase (Equus caballus)	nM	57
C[N+](C)(CCCCCC[N+](C)(C)C1c2ccccc2-c2ccccc21)C1c2ccccc2-c2ccccc21 [HEXAFLUORENIUM BROMIDE]	Butyrylcholinesterase (Equus caballus)	nM	340
c1ccc(C[n+]2cccc3c4ccccc4ccc32)cc1	Butyrylcholinesterase (Equus caballus)	nM	860
O=C(O)C[n+]1cc2ccccc2c2ccccc21	Butyrylcholinesterase (Equus caballus)	nM	41000

====

TARGET ENTITY: Acetylcholinesterase (Electrophorus electricus, UniProt O42275)
ASSAY NAME: Mixed-type inhibition of electric eel acetylcholinesterase using acetylcholine bromide as substrate assessed as […] by Lineweaver-Burk plot analysis
MEASURED QUANTITY: Ki (mM)

c1cc[n+](CCCCCC[n+]2ccccc2)cc1 16

====

Measured pKi, listed per entry.
TARGET ENTITY: Acetylcholinesterase (Electrophorus electricus, UniProt O42275)
ASSAY NAME: Reversible competitive inhibition of electric eel acetylcholinesterase using acetylcholine bromide as substrate assessed as free enzyme-inhibitor complex by Lineweaver-Burk plot analysis
pKi: −log10 of the molar value.
MEASURED QUANTITY: pKi

CC(=O)OCC[n+]1ccccc1 7.68
CC(=O)OCC[n+]1c2ccccc2cc2ccccc21 7.68
CC(=O)OCC[n+]1cc2ccccc2c2ccccc21 6.42
CC(=O)OCC[n+]1cccc2c3ccccc3ccc21 6.02

====

TARGET ENTITY: Acetylcholinesterase (Electrophorus electricus)
ASSAY NAME: Reversible mixed-type inhibition of electric eel acetylcholinesterase using acetylcholine bromide as substrate assessed as free enzyme-inhibitor complex by Lineweaver-Burk plot analysis
Measured Ki, listed per entry.
MEASURED QUANTITY: Ki

MOLECULE	MEASURED RESULT
c1ccc2c(c1)cc1ccccc1[n+]2CCCCCC[n+]1c2ccccc2cc2ccccc21	0.0021 µM
c1ccc(C[n+]2cccc3c4ccccc4ccc32)cc1	9.3 µM
OCC[n+]1c2ccccc2cc2ccccc21	2.9 µM
c1ccc2c(c1)c[n+](Cc1ccc(C[n+]3cc4ccccc4c4ccccc43)cc1)c1ccccc21	0.18 µM
c1ccc2c(c1)ccc1c2ccc[n+]1CCCCCC[n+]1cccc2c3ccccc3ccc21	0.01 µM
C[n+]1cc2ccccc2c2ccccc21	5.6 µM
C[n+]1c2ccccc2cc2ccccc21	0.5 µM
CCC[n+]1cc2ccccc2c2ccccc21	3.2 µM
OCC[n+]1cccc2ccc3ccccc3c21	150 µM
OCC[n+]1cccc2c3ccccc3ccc21	83 µM
c1ccc(CC[n+]2cccc3c4ccccc4ccc32)cc1	1.8 µM
CCCCCC[n+]1cc2ccccc2c2ccccc21	0.53 µM
CC(C)[n+]1cc2ccccc2c2ccccc21	22 µM
C[N+](C)(CCCCCC[N+](C)(C)C1c2ccccc2-c2ccccc21)C1c2ccccc2-c2ccccc21 [HEXAFLUORENIUM BROMIDE]	1.3 µM
OCC[n+]1cc2ccccc2c2ccccc21	31 µM
C[n+]1cccc2c3ccccc3ccc21	8.9 µM
c1ccc(C[n+]2cc3ccccc3c3ccccc32)cc1	0.25 µM
O=C(O)C[n+]1cc2ccccc2c2ccccc21	12 µM
c1ccc2c(c1)c[n+](CCCCCC[n+]1cc3ccccc3c3ccccc31)c1ccccc21	0.0066 µM
C[n+]1cccc2ccc3ccccc3c21	18 µM
CC(=O)OCC[n+]1ccccc1	320 µM
c1ccc(CC[n+]2cc3ccccc3c3ccccc32)cc1	0.28 µM

====

TARGET ENTITY: Acetylcholinesterase (Electrophorus electricus)
ASSAY NAME: Mixed-type inhibition of electric eel acetylcholinesterase using acetylcholine bromide as substrate assessed as free enzyme-inhibitor complex by Lineweaver-Burk plot analysis
MEASURED QUANTITY: Ki (µM)

C[N+](C)(CCCCCC[N+](C)(C)Cc1ccc(-c2ccccc2)cc1)Cc1ccc(-c2ccccc2)cc1 39
CC(=O)OCC[n+]1ccccc1 320

====

TARGET ENTITY: Butyrylcholinesterase (Equus caballus)
ASSAY NAME: Mixed-type inhibition of horse serum butyrylcholinesterase using acetylcholine bromide as substrate assessed as free enzyme-inhibitor complex by Lineweaver-Burk plot analysis
Measured Ki, listed per entry.
MEASURED QUANTITY: Ki (µM)

C[N+](C)(CCCCCC[N+](C)(C)Cc1ccc(-c2ccccc2)cc1)Cc1ccc(-c2ccccc2)cc1 1.5
CC(=O)OCC[n+]1ccccc1 120
c1cc[n+](CCCCCC[n+]2ccccc2)cc1 120
